# testProtocol: Apparent clearance in Sprague-Dawley rat at 600 umol/kg, po measured up to 1440 mins by LC/MS/MS analysis
# Format: ADME, organism-based
# assaySetup: in vivo, read-out: CL(app) (converted)
endpointLabel: CL/F (L/h/kg)
Supply the numeric figure in L/h/kg, leaving out any unit text.

For the compound shown here, "Cc1c(O)c(O)cc[n+]1[C@@H](CO)Cc1ccccc1.[Cl-]" , give the reported CL/F.
0.91

====

# testProtocol: Drug metabolism in rat bile assessed as (2S,3S,4S,5R,6R)-3,4,5-trihydroxy-6-[(2R)-2-(3-hydroxy-2-methyl-4-oxo-1-pyridyl)-3-phenylpropoxy]tetrahydropyran-2-carboxylic acid/(2S,3S,4S,5R,6S)-6-[[1-[(1R)-1-benzyl-2-hydroxyethyl]-2-methyl-4-oxo-3-pyridyl]oxy]-3,4,5-trihydroxy-tetrahydropyran-2-carboxylic acid ratio formation at 150 umol/kg, po measured over 8 hrs by LC/TOF/MS/MS analysis
# Type: ADME, organism-based
# assaySetup: in vivo
endpointLabel: Ratio

For the compound shown here, "Cc1c(O)c(O)cc[n+]1[C@@H](CO)Cc1ccccc1.[Cl-]" , give the reported Ratio.
2.3 to 6.9

====

# studyTarget: Cytochrome P450 2B6 (Homo sapiens, UniProt P20813)
# Sequence (P20813 whole entry): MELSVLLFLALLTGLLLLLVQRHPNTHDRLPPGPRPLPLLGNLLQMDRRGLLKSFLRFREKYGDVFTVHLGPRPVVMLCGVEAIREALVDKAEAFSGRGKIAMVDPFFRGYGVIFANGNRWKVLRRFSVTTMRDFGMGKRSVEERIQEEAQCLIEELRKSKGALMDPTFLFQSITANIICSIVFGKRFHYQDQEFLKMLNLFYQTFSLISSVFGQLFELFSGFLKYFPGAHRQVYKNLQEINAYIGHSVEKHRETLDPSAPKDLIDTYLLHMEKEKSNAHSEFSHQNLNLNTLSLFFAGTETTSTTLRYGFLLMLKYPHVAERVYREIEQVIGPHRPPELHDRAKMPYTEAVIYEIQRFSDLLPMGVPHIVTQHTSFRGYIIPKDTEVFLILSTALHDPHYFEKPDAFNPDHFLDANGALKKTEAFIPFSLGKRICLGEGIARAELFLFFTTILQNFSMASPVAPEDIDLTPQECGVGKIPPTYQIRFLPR
endpointLabel: IC50

For the compound shown here, "Cc1c(O)c(O)cc[n+]1[C@@H](CO)Cc1ccccc1.[Cl-]" , give the reported IC50.
> 200 µM

====

# testProtocol: Ratio of drug level in kidney to plasma in rat at 150 umol/kg, po measured within 10 mins by LC-MS/MS analysis
# Format: ADME, organism-based
# assaySetup: kidney and plasma
endpointLabel: Kp at 10 min

For the molecule shown here, "Cc1c(O)c(O)cc[n+]1[C@@H](CO)Cc1ccccc1.[Cl-]" , give the reported Kp at 10 min.
3.3 to 8.8

====

# studyTarget: Cytochrome P450 1A2 (Homo sapiens, UniProt P05177)
# Sequence (P05177 whole entry): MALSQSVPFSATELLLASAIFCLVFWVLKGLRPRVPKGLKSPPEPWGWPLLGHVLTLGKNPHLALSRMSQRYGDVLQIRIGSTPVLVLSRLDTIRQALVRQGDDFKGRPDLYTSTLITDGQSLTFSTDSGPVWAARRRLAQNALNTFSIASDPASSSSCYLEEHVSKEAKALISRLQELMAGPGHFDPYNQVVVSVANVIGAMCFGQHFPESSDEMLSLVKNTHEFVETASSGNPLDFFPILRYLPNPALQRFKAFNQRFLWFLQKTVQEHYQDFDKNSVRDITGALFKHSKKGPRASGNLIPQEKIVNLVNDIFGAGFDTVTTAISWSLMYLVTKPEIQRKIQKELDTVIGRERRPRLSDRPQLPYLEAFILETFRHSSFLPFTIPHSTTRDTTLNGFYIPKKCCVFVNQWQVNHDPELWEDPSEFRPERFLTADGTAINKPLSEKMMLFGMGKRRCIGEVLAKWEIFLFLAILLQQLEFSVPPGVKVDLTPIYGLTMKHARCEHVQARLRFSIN
pIC50: −log10 of the molar value.
endpointLabel: pIC50

Form field: pIC50 recorded for "Cc1c(O)c(O)cc[n+]1[C@@H](CO)Cc1ccccc1.[Cl-]" with Cytochrome P450 1A2 (Homo sapiens, UniProt P05177) (enter value)
< 3.70

====

# testProtocol: Cmax in Sprague-Dawley rat at 150 umol/kg, po measured up to 1440 mins by LC/MS/MS analysis
# Type: ADME, organism-based
# Parameters: dose 150 umol/kg, route oral
# assaySetup: in vivo
endpointLabel: Cmax (ng/mL)
Supply the numeric figure in ng/mL, leaving out any unit text.

For the compound shown here, "Cc1c(O)c(O)cc[n+]1[C@@H](CO)Cc1ccccc1.[Cl-]" , give the reported Cmax.
19900

====

# testProtocol: Oral bioavailability in Sprague-Dawley rat at 75 umol/k measured up to 1440 mins by LC/MS/MS analysis
# Assay type: ADME, organism-based
# assaySetup: in vivo, 75 umol/kg
endpointLabel: bioavailability (%)
Supply the numeric figure in %, leaving out any unit text.

For the compound shown here, "Cc1c(O)c(O)cc[n+]1[C@@H](CO)Cc1ccccc1.[Cl-]" , give the reported bioavailability.
82.6

====

# studyTarget: Cytochrome P450 3A4 (Homo sapiens)
# Sequence (P08684 whole entry): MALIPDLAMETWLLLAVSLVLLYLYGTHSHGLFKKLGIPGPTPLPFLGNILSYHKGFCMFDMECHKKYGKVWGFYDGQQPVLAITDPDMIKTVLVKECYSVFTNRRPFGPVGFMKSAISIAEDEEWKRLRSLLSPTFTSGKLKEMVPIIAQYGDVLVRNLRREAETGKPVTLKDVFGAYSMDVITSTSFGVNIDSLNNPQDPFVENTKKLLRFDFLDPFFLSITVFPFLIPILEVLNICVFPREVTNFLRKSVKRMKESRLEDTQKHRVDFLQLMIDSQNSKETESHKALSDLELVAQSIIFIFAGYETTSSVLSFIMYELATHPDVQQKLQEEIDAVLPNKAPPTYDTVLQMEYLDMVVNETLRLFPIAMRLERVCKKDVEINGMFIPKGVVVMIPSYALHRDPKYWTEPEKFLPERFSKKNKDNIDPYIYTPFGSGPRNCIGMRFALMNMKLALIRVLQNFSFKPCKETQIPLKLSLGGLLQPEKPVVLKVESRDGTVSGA
endpointLabel: IC50

Form field: IC50 recorded for "Cc1c(O)c(O)cc[n+]1[C@@H](CO)Cc1ccccc1.[Cl-]" with Cytochrome P450 3A4 (Homo sapiens) (enter value)
> 200 µM

====

# testProtocol: AUC (0 to infinity) in Sprague-Dawley rat at 600 umol/kg, po measured up to 1440 mins by LC/MS/MS analysis
# Type: ADME, organism-based
# Parameters: dose 600 umol/kg, time infinity, route oral
# assaySetup: in vivo, 24 h
endpointLabel: AUC (µg·h/mL)
Supply the numeric figure in µg·h/mL, leaving out any unit text.

For the molecule shown here, "Cc1c(O)c(O)cc[n+]1[C@@H](CO)Cc1ccccc1.[Cl-]" , give the reported AUC.
181
